Entries and their combination Emax
tested on: SJRH30 (Rhabdomyosarcoma); test: combination Emax (second highest fraction inhibited in the dose matrix, 72 h); higher = more inhibition; extreme values may be limits of the assay

# Compound, combination Emax
records = [
    ("CS(=O)(=O)CCNCc1ccc(-c2ccc3ncnc(Nc4ccc(OCc5cccc(F)c5)c(Cl)c4)c3c2)o1 [Lapatinib] + NC1(c2ccc(-c3nc4ccn5c(=O)[nH]nc5c4cc3-c3ccccc3)cc2)CCC1 [MK-2206] (first compound max 10 µM, 7x7, partner max 10 µM)", 0.914),
    ("CCN(CCO)CCCOc1ccc2c(Nc3cc(CC(=O)Nc4cccc(F)c4)[nH]n3)ncnc2c1 [AZD2811] + O=C(c1cc(Cc2n[nH]c(=O)c3ccccc23)ccc1F)N1CCN(C(=O)C2CC2)CC1 [Olaparib] (first compound max 1 µM, 7x7, partner max 10 µM)", 0.255),
    ("CN(C)CCCOc1ccc(-c2ccc3ncc4c(c3c2)n(C2CCOCC2)c(=O)n4C)cn1 [AZD0156] + C=CCn1c(=O)c2cnc(Nc3ccc(N4CCN(C)CC4)cc3)nc2n1-c1cccc(C(C)(C)O)n1 [AZD1775] (first compound max 1 µM, partner max 1 µM)", 0.809),
    ("CN(CCO)CC[C@H](CSc1ccccc1)Nc1ccc(S(=O)(=O)NC(=O)c2ccc(N3CCC([C@@H](O)c4ccccc4-c4ccc(Cl)cc4)CC3)cc2)cc1S(=O)(=O)C(F)(F)F [AZD4320] + C[C@@H](Nc1cc(F)cc(F)c1)c1cc(C(=O)N(C)C)cc2c(=O)cc(N3CCOCC3)oc12 [AZD8186] (first compound max 1 µM, 7x7, partner max 3 µM)", 0.457),
    ("CC(=O)Nc1cccc(-n2c(=O)n(C3CC3)c(=O)c3c(Nc4ccc(I)cc4F)n(C)c(=O)c(C)c32)c1 [Trametinib] + Cc1nc(-c2cn3c(n2)-c2ccc(-c4cnn(C(C)(C)C(N)=O)c4)cc2OCC3)n(C(C)C)n1 [Taselisib] (first compound max 1 µM, 7x7, partner max 10 µM)", 0.947),
    ("C=CCn1c(=O)c2cnc(Nc3ccc(N4CCN(C)CC4)cc3)nc2n1-c1cccc(C(C)(C)O)n1 [AZD1775] + C1CN(CCC1(C(=O)N[C@@H](CCO)C2=CC=C(C=C2)Cl)N)C3=NC=NC4=C3C=CN4 [Capivasertib] (first compound max 3 µM, partner max 3 µM)", 0.955),
    ("CN(C)CCCOc1ccc(-c2ccc3ncc4c(c3c2)n(C2CCOCC2)c(=O)n4C)cn1 [AZD0156] + C[C@@H]1COCCN1C2=NC(=NC(=C2)C3(CC3)[S@](=N)(=O)C)C4=C5C=CNC5=NC=C4 [AZD6738] (first compound max 1 µM, 7x7, partner max 10 µM)", 0.894),
]

Measured values drawn from the supplement of paper PMC11061612 for this set.
